Target: HLA-A*02:12
Test: IEDB peptide-MHC binding, purified MHC/direct/fluorescence; filed as Kd, often an IC50 or EC50 that approximates it; bounds were set here for any values at or beyond the usual limits of such assays
Settings: source organism: Listeria monocytogenes serotype 4b str. H7858
ASSAY METRIC: Kd

Dear colleague, I am looking for the recorded Kd of the following sequence: FRDEAGAIL
≥ 20 µM

###

Biological target: HLA-A*02:01
Experiment: IEDB peptide-MHC binding, purified MHC/competitive/fluorescence; filed as Kd, often an IC50 or EC50 that approximates it; bounds were set here for any values at or beyond the usual limits of such assays
Conditions: source organism: Burkholderia pseudomallei K96243
ASSAY METRIC: Kd (nM)
Respond with the bare value in nM.

I have this sequence here, ELAKPWPGA , and I need its recorded Kd.
1210

###

Biological target: HLA-A*02:06
Test: IEDB peptide-MHC binding, purified MHC/competitive/radioactivity; filed as Kd, often an IC50 or EC50 that approximates it; bounds were set here for any values at or beyond the usual limits of such assays
Conditions: source organism: Mammarenavirus guanaritoense
ASSAY METRIC: Kd (nM)
Express the result in nM but write the number alone.

Kd lookup needed for CNYTRFWYI , thanks.
257

###

Target: HLA-B*58:01
Assay: IEDB peptide-MHC binding, purified MHC/direct/fluorescence; filed as Kd, often an IC50 or EC50 that approximates it; bounds were set here for any values at or beyond the usual limits of such assays
Settings: source organism: Giardia intestinalis
pKd: −log10 of the molar value.
ASSAY METRIC: pKd

I'm curious: which pKd was measured for INTLESMMK tested on HLA-B*58:01?
≤ 4.70

###

Biological target: HLA-A*31:01
Test: IEDB peptide-MHC binding, purified MHC/direct/fluorescence; filed as Kd, often an IC50 or EC50 that approximates it; bounds were set here for any values at or beyond the usual limits of such assays
Conditions: source organism: Mycobacterium tuberculosis
ASSAY METRIC: Kd

# Kd lookup, item KPARGGSSI
≥ 20 µM

###

Target: HLA-B*18:01
Experiment: IEDB peptide-MHC binding, purified MHC/direct/fluorescence; filed as Kd, often an IC50 or EC50 that approximates it; bounds were set here for any values at or beyond the usual limits of such assays
Settings: source organism: Influenza A virus (A/Viet Nam/HN/2004(H5N1))
pKd: −log10 of the molar value.
ASSAY METRIC: pKd

Provide value of pKd for this record tested with HLA-B*18:01: FRNQVKIRR
≤ 4.70

###

Some sequences, each annotated with its measured Kd.
Molecular target: HLA-A*03:01
Experiment: IEDB peptide-MHC binding, purified MHC/competitive/radioactivity; filed as Kd, often an IC50 or EC50 that approximates it; bounds were set here for any values at or beyond the usual limits of such assays
Conditions: source organism: SARS coronavirus Tor2
// note: answer is a bare numeric in µM

1) MLAHAEETRK : 0.496
2) KFTTSLSLHK : 0.275
3) SQMLLIVLK : 0.204
4) MSLSEQLRK : 0.00824
5) VVPDYGTYK : 0.309

Requested read-out: Kd. Entry: AVHDFFKFR
7.14

// same read-out, input: VTYVPSQER
3.27

Try TVYDDAARR next.
0.455

Do the same for QSADASTFLK please
0.348

Please do the same for TQVLKTMSLY as well.
0.185

Try the sequence ATKIIALNK
1.36

Follow-up entry: CVDIPGIPK
0.149

Next record, please: VLCNSQTSLR
0.435

Cool, now STNLCTHSFR
0.297

Same for FVASFRLFAR
0.0942

Next record, please: GVIADYNYK
0.0238

Same again, this time with SFYYIWKSY
5.15

Same thing, different sequence: ALLSTDGNK
0.0525

Then DFYDFAVSK ?
4.11
